The reported numbers originate from ChEMBL document CHEMBL4043274.

Answer each item with its documented MIC.
Tested on: Klebsiella pneumoniae
Assay: Antibacterial activity against Klebsiella pneumoniae ATCC 35657 by CLSI M100-S17 protocol based method
Assay type: functional
Number in µg/mL, nothing else.

Per the record, `CCc1c(-c2ccc(N3C[C@@H]4[C@@H](N)[C@@H]4C3)cc2)[nH]c(=O)c(C(=O)O)c1O` has MIC of 0.39

Per the record, CCc1c(-c2ccc(N3CCC(N4CCCC4)C3)cc2)[nH]c(=O)c(C(=O)O)c1O (stereo not drawn) has MIC of 1.6

Per the record, CCc1c(-c2ccc(N3CC4CC4(N)C3)cc2)[nH]c(=O)c(C(=O)O)c1O (stereo not drawn) has MIC of 3.1

---

Answer each item with its documented Ratio.
System: Escherichia coli
Assay: Ratio of MIC in presence to absence of HSA for wild-type Escherichia coli ATCC 25922
Format: functional

Per the record, `CCc1c(-c2ccc(N3CCNCC3)cc2)[nH]c(=O)c(C(=O)O)c1O` has Ratio of <3

Per the record, `CCc1c(-c2ccc(N3CCCC3)cc2)[nH]c(=O)c(C(=O)O)c1O` has Ratio of >30 - 40

Per the record, CCc1c(-c2ccc(N3CCC(N4CCCC4)C3)cc2)[nH]c(=O)c(C(=O)O)c1O (centres undefined) has Ratio of <4

Per the record, CCc1c(-c2ccc(N3CCC(C(C)(C)N)C3)cc2)[nH]c(=O)c(C(=O)O)c1O (centres undefined) has Ratio of 4 - 8

Per the record, `CCc1c(-c2ccc(N3C[C@@H]4[C@H](C3)[C@H]4NC)cc2)[nH]c(=O)c(C(=O)O)c1O` has Ratio of 4 - 8

Per the record, CCc1c(-c2ccc(N3CCC(C4(N)CCC4)C3)cc2)[nH]c(=O)c(C(=O)O)c1O (centres undefined) has Ratio of 4 - 8

Per the record, CCc1c(-c2ccc(N3CCC(C)(CN)C3)cc2)[nH]c(=O)c(C(=O)O)c1O (centres undefined) has Ratio of 4 - 8

Per the record, `CCc1c(-c2ccc(N3C[C@@H]4[C@H](C3)[C@H]4N(C)C)cc2)[nH]c(=O)c(C(=O)O)c1O` has Ratio of 4 - 8

Per the record, CCc1c(-c2ccc(N3CCC(CNC)C3)cc2)[nH]c(=O)c(C(=O)O)c1O (centres undefined) has Ratio of 4 - 8

---

Test system: Escherichia coli
Assay: Ratio of MIC in presence to absence of HSA for wild-type Escherichia coli ATCC 25922
Assay type: functional
Answer each item with its documented Ratio.

Per the record, `CCc1c(-c2ccc(N3CCCCC3)cc2)[nH]c(=O)c(C(=O)O)c1O` has Ratio of >30

Per the record, CCc1c(-c2ccc(N3CCC(N(C)C)C3)cc2)[nH]c(=O)c(C(=O)O)c1O (stereo not given) has Ratio of <4

Per the record, CCc1c(-c2ccc(N3CCC(C4(N)CC4)C3)cc2)[nH]c(=O)c(C(=O)O)c1O (stereo not given) has Ratio of 4 - 8

Per the record, CCc1c(-c2ccc(N3CC4CCCNC4C3)cc2)[nH]c(=O)c(C(=O)O)c1O (stereo not given) has Ratio of <4

Per the record, CCc1c(-c2ccc(N3CCC(C4(N(C)C)CC4)C3)cc2)[nH]c(=O)c(C(=O)O)c1O (stereo not given) has Ratio of 4 - 8
